Quick reference for melting point among some molecules

// worked examples, melting point included
SMILES STRING: COc1ccc(-c2nnc(NC(=O)COc3c(-c4ccc(OC)c(OC)c4)oc4cc(OC)cc(OC)c4c3=O)o2)cc1
RESULT: 206 to 208 °C

SMILES STRING: COc1cc(OC)c2c(=O)c(OCC(=O)Nc3nnc(-c4cccc(Br)c4)o3)c(-c3cc(OC)c(OC)c(OC)c3)oc2c1
RESULT: 202 to 204 °C

SMILES STRING: COc1cc(OC)c2c(=O)c(OCC(=O)Nc3nnc(-c4ccccc4Cl)o3)c(-c3ccc(OC)c(OC)c3)oc2c1
RESULT: 221 to 223 °C

SMILES STRING: COc1cc(OC)c2c(=O)c(OCC(=O)Nc3nnc(-c4ccc(F)cc4)o3)c(-c3ccc(OC)c(OC)c3)oc2c1
RESULT: 236 to 238 °C

SMILES STRING: COc1cc(OC)c2c(=O)c(OCC(=O)Nc3nnc(-c4ccccc4[N+](=O)[O-])o3)c(-c3cc(OC)c(OC)c(OC)c3)oc2c1
RESULT: 204 to 206 °C

Lab note: "COc1cc(OC)c2c(=O)c(OCC(=O)Nc3nnc(-c4ccc(Cl)c(Cl)c4)o3)c(-c3ccc(OC)c(OC)c3)oc2c1" gave melting point of 230 to 232 °C

What the record says about "COc1cc(OC)c2c(=O)c(OCC(=O)Nc3nnc(-c4cccc5ccccc45)o3)c(-c3ccc(OC)c(OC)c3)oc2c1" : melting point is 230 to 232 °C

----------
- TARGET OF ASSAY: telomerase (Homo sapiens)
- Construct: assayed for telomerase activity using MGC-803 cells extract; endogenous in cells
- Sequence (O14746 whole entry): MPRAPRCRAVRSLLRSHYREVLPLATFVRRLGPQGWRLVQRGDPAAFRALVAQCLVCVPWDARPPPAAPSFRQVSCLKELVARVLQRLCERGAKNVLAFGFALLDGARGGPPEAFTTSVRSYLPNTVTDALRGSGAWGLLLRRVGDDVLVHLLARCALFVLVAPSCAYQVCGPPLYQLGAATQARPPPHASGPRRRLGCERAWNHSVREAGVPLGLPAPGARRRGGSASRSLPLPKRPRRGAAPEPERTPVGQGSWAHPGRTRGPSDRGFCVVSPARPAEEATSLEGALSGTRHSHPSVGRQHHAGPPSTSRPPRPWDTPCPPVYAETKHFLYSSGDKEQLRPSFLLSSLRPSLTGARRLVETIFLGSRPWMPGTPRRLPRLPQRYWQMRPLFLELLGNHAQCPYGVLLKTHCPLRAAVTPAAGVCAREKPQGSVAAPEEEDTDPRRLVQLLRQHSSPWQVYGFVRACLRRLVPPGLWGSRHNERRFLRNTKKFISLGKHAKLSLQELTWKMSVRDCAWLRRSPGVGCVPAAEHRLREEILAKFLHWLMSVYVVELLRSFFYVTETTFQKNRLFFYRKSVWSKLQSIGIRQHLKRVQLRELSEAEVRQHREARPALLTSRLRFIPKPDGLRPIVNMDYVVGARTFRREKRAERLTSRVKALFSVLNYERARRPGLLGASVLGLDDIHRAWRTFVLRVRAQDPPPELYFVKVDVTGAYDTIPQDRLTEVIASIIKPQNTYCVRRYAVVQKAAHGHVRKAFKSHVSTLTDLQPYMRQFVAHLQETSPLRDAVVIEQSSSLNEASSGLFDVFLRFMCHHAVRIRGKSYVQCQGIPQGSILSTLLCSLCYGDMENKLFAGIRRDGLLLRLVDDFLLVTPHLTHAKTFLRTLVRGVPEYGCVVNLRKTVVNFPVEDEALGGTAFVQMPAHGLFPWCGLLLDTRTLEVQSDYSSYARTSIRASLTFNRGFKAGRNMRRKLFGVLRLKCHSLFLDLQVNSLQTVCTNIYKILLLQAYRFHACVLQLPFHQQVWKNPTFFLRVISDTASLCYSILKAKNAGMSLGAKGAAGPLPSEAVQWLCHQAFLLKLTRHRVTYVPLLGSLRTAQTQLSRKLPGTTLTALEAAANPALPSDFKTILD
- Sequence (O60832 2-514 partner limits assumed): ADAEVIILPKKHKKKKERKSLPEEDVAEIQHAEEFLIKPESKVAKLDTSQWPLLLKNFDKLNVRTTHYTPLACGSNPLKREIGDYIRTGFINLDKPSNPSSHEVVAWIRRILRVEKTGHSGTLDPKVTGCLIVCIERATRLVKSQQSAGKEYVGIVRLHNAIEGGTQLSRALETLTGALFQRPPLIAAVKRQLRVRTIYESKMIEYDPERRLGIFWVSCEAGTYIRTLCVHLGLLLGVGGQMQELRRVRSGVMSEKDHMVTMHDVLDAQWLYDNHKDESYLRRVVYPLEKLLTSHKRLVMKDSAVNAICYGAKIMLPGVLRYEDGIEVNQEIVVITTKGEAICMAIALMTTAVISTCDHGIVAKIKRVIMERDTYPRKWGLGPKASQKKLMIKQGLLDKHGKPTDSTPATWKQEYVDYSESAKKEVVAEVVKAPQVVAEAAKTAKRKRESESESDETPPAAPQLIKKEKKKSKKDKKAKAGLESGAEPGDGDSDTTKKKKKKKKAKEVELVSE
- Sequence (Q9NPE3 whole entry partner): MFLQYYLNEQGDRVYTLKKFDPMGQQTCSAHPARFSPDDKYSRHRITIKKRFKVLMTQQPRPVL
- Sequence (Q9NX24 whole entry partner): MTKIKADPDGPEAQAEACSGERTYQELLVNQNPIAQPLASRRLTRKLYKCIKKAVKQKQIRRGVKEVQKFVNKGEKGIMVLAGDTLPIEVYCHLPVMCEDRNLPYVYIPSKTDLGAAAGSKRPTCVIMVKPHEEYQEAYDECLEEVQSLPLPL
- Sequence (Q9NY12 whole entry partner): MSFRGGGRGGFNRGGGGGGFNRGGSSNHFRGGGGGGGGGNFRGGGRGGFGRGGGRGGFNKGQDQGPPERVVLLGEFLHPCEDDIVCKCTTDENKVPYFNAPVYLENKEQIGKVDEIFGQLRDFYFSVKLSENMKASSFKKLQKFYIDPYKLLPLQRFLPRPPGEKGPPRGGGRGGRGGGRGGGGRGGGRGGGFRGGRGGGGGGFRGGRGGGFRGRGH
- METHOD SUMMARY: Telomerase activity assay using MGC-803 cells extract
- EXPERIMENTAL CONTEXT: mean ± SD
PROPERTY MEASURED: IC50 (µM)

SMILES STRING: COc1cc(OC)c2c(=O)c(OCC(=O)Nc3nnc(-c4ccc(C)cc4)o3)c(-c3ccc(OC)c(OC)c3)oc2c1
PROPERTY MEASURED: IC50
READOUT NUMBER: 5.65

SMILES STRING: COc1cc(OC)cc(-c2nnc(NC(=O)COc3c(-c4ccc(OC)c(OC)c4)oc4cc(OC)cc(OC)c4c3=O)o2)c1
PROPERTY MEASURED: IC50
READOUT NUMBER: 3.99

I = COc1cc(OC)c2c(=O)c(OCC(=O)Nc3nnc(-c4ccccc4OC(F)(F)F)o3)c(-c3cc(OC)c(OC)c(OC)c3)oc2c1
II = COc1ccc(-c2nnc(NC(=O)COc3c(-c4cc(OC)c(OC)c(OC)c4)oc4cc(OC)cc(OC)c4c3=O)o2)cc1
**Q:** Select one: I or II . Criterion: greater recorded IC50. Respond using the label that marks the chosen record.
**A:** II

----------
PROPERTY MEASURED: melting point

Look over these answered cases.
MOLECULE: COc1cc(OC)c2c(=O)c(OCC(=O)Nc3nnc(-c4ccc(OC)c(OC)c4)o3)c(-c3cc(OC)c(OC)c(OC)c3)oc2c1 [A27]
PROPERTY MEASURED: melting point
RESULT: 220 to 222 °C
--
MOLECULE: COc1cc(OC)c2c(=O)c(OCC(=O)Nc3nnc(-c4cccs4)o3)c(-c3ccc(OC)c(OC)c3)oc2c1 [B32]
PROPERTY MEASURED: melting point
RESULT: 238 to 240 °C
--
MOLECULE: COc1cc(OC)c2c(=O)c(OCC(=O)Nc3nnc(-c4ccccc4C)o3)c(-c3ccc(OC)c(OC)c3)oc2c1 [B13]
PROPERTY MEASURED: melting point
RESULT: 234 to 236 °C
--
MOLECULE: COc1cccc(-c2nnc(NC(=O)COc3c(-c4cc(OC)c(OC)c(OC)c4)oc4cc(OC)cc(OC)c4c3=O)o2)c1 [A23]
PROPERTY MEASURED: melting point
RESULT: 208 to 210 °C

melting point recorded for this molecule, COc1cc(OC)c2c(=O)c(OCC(=O)Nc3nnc(-c4cccc(Cl)c4)o3)c(-c3cc(OC)c(OC)c(OC)c3)oc2c1 [A6] , is 206 to 208 °C

What the record says about COc1cc(OC)c2c(=O)c(OCC(=O)Nc3nnc(-c4ccccc4F)o3)c(-c3cc(OC)c(OC)c(OC)c3)oc2c1 [A4] : melting point is 213 to 215 °C

Per the records, this molecule ( COc1cc(OC)c2c(=O)c(OCC(=O)Nc3nnc(-c4cccc(C(F)(F)F)c4)o3)c(-c3ccc(OC)c(OC)c3)oc2c1 [B17] ) has melting point equal to 195 to 197 °C

The molecule COc1cc(OC)c2c(=O)c(OCC(=O)Nc3nnc(-c4ccc(C)cc4)o3)c(-c3cc(OC)c(OC)c(OC)c3)oc2c1 [A11] showed melting point equal to 225 to 227 °C

// COc1cc(OC)c2c(=O)c(OCC(=O)Nc3nnc(-c4ccccc4C(F)(F)F)o3)c(-c3cc(OC)c(OC)c(OC)c3)oc2c1 [A18] : melting point value = 191 to 193 °C

GET /value?item= COc1cc(OC)c2c(=O)c(OCC(=O)Nc3nnc(-c4ccco4)o3)c(-c3cc(OC)c(OC)c(OC)c3)oc2c1 [A31] &field=melting point returns 240 to 242 °C

// melting point value for COc1cc(OC)c2c(=O)c(OCC(=O)Nc3nnc(-c4cccc([N+](=O)[O-])c4)o3)c(-c3ccc(OC)c(OC)c3)oc2c1 [B14] : 235 to 237 °C

Input COc1cc(OC)c2c(=O)c(OCC(=O)Nc3nnc(-c4cccc(C)c4)o3)c(-c3cc(OC)c(OC)c(OC)c3)oc2c1 [A12] . Output melting point: 197 to 199 °C

For this molecule ( COc1cc(OC)c2c(=O)c(OCC(=O)Nc3nnc(-c4ccc(Cl)c(Cl)c4)o3)c(-c3cc(OC)c(OC)c(OC)c3)oc2c1 [A25] ), measured melting point is 222 to 224 °C

Looking up COc1cc(OC)c2c(=O)c(OCC(=O)Nc3nnc(-c4cccc(C)c4)o3)c(-c3ccc(OC)c(OC)c3)oc2c1 [B12] , I found its melting point recorded as 221 to 223 °C
